Test system: adult mongrel dogs
procedure-text: Renal vasodilating activity in anesthetized dogs
Type: in vivo, mongrel dog
condition-context: Canis lupus familiaris, read-out: HR: percent change in heart rate, dose 1.2 mpk, relative to controls
Exercise: for every item that follows, state its recorded change in vivo at 1.2 mg/kg.
One number for each entry, in %.

Example entries begin here.
1. CCN(CC)C(=O)Oc1nc(C)c2cc(OC)c(OC)cc2c1NC(N)=O; -3
2. COc1cc2c(C)nc(OC(=O)N3CCNCC3)c([N+](=O)[O-])c2cc1OC; 20
3. C=CCNC(=O)Nc1c(OC(=O)N(C)C)nc(C)c2cc(OC)c(OC)cc12; 0
4. CCCCNC(=O)Nc1c(OC(=O)N(C(C)C)C(C)C)nc(C)c2cc(OC)c(OC)cc12; 11
5. C=CCNC(=O)Nc1c(OC(=O)N2CCCC2)nc(C)c2cc(OC)c(OC)cc12; 2

Answer for every listed entry: what is its change in vivo at 1.2 mg/kg? The entries follow.
1. C=CCNC(=O)Nc1c(OC(=O)N(CC)CC)nc(C)c2cc(OCC)c(OC)cc12
2. C=CCNC(=O)Nc1c(OC(=O)N2CCN(C(=O)OC(C)(C)C)CC2)nc(C)c2cc(OC)c(OC)cc12

OUTPUT:
-16
12
